- assay overview: Pharmacokinetics in beagles, single-dose regimen of TRQI (i.v.) or TRQC (oral), plasma LC-MS/MS
- Type: in vivo, beagle
- condition label: female, beagle, dog, plasma, iv, 0.5 mL/kg, single TRQI 0.5 mL/kg; beagle No 6; read-out: AUC0–24 h
Please provide measured AUC(0-t) for the entries that follow.
I'd appreciate it if you wrote the number followed by its unit.

Lab book: AUC(0-t) of C[C@H](CCC(=O)O)[C@H]1CC[C@H]2[C@@H]3[C@H](O)C[C@@H]4C[C@H](O)CC[C@]4(C)[C@H]3CC[C@]12C noted as 95 ng·h/mL

// AUC(0-t) value for C[C@H](CCC(=O)O)[C@H]1CC[C@H]2[C@@H]3[C@@H](O)C[C@@H]4C[C@H](O)CC[C@]4(C)[C@H]3CC[C@]12C : 992 ng·h/mL

Reported AUC(0-t) ( O=C(/C=C/c1ccc(O)c(O)c1)O[C@@H]1C[C@](O)(C(=O)O)C[C@@H](O)[C@H]1O ) = 24.8 ng·h/mL

Record O=C(O)[C@H]1O[C@@H](Oc2cc3oc(-c4ccccc4)cc(=O)c3c(O)c2O)[C@H](O)[C@@H](O)[C@@H]1O , field AUC(0-t): 39.9 ng·h/mL
